Hey, just so you know, these numbers are from patent US6391897B2.

Biological target: Human recombinant PTP1B (Homo sapiens, UniProt P18031)
Construct: made in house
Sequence (P18031 1-435): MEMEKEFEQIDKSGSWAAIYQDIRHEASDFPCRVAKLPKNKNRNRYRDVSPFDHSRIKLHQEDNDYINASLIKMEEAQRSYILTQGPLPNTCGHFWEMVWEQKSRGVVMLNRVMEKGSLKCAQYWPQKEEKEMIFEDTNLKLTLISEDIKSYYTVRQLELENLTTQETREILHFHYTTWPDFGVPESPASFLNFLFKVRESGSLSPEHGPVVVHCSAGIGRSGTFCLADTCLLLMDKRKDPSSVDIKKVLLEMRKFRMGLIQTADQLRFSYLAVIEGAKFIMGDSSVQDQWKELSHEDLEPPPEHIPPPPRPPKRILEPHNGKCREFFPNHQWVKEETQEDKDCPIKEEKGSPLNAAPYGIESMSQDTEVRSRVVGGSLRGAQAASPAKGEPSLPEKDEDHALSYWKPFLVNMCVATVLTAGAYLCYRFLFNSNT
Test: Inhibition of tri-phosphorylated insulin receptor dodecaphosphopeptide dephosphorylation by hPTP1B (malachite green)
Format: biochemical
Conditions: compound at 2.5 uM
READOUT TYPE: percent of phosphatase control (change) at 2.5 uM

Input: Give percent of phosphatase control (change) at 2.5 uM (Human recombinant PTP1B (Homo sapiens, UniProt P18031)) of the following molecule: O=C(O)C(Cc1ccccc1)Oc1ccc(-c2ccc(-c3c(Br)oc4ccccc34)cc2)cc1 (centres unmarked) [Example 7]
Output: −58 (2.5 uM) %

Input: # query: percent of phosphatase control (change) at 2.5 uM | item CC(=O)c1ccc(-c2ccc(-c3ccc(O[C@@H](Cc4ccccc4)C(=O)[O-])cc3)cc2)s1.[Na+] [Example 71] | system: Human recombinant PTP1B (Homo sapiens, UniProt P18031)
Output: −43 (2.5 uM) %

Input: API: value(readout=percent of phosphatase control (change) at 2.5 uM, system=Human recombinant PTP1B (Homo sapiens, UniProt P18031)) for record O=C(O)COc1ccc(-c2ccc(-c3c(Br)oc4ccccc34)cc2)cc1 [Example 6]
Output: −15 (2.5 uM) %

Input: Please provide the recorded percent of phosphatase control (change) at 2.5 uM for O=C(O)[C@H](Cc1ccccc1)Oc1ccc(-c2ccc(-c3nc4ccccc4n3Cc3ccccc3)cc2)cc1 [Example 70] , tested on Human recombinant PTP1B (Homo sapiens, UniProt P18031).
Output: −41 (2.5 uM) %

Input: Request - read-out percent of phosphatase control (change) at 2.5 uM | tested on Human recombinant PTP1B (Homo sapiens, UniProt P18031) | molecule COC(=O)[C@H](Cc1ccccc1)Oc1ccc(-c2ccc(-c3c(Cc4ccccc4)oc4ccccc34)cc2)cc1 [Example 23]
Output: −36 (2.5 uM) %
